# experimental.target: CFTR G551D mutant (Homo sapiens, UniProt P13569, G551D)
# Construct: expressed in transfected cells; host or cells: HEK293 (reverse transfection with plasmid)
# Sequence (P13569 whole entry G551D): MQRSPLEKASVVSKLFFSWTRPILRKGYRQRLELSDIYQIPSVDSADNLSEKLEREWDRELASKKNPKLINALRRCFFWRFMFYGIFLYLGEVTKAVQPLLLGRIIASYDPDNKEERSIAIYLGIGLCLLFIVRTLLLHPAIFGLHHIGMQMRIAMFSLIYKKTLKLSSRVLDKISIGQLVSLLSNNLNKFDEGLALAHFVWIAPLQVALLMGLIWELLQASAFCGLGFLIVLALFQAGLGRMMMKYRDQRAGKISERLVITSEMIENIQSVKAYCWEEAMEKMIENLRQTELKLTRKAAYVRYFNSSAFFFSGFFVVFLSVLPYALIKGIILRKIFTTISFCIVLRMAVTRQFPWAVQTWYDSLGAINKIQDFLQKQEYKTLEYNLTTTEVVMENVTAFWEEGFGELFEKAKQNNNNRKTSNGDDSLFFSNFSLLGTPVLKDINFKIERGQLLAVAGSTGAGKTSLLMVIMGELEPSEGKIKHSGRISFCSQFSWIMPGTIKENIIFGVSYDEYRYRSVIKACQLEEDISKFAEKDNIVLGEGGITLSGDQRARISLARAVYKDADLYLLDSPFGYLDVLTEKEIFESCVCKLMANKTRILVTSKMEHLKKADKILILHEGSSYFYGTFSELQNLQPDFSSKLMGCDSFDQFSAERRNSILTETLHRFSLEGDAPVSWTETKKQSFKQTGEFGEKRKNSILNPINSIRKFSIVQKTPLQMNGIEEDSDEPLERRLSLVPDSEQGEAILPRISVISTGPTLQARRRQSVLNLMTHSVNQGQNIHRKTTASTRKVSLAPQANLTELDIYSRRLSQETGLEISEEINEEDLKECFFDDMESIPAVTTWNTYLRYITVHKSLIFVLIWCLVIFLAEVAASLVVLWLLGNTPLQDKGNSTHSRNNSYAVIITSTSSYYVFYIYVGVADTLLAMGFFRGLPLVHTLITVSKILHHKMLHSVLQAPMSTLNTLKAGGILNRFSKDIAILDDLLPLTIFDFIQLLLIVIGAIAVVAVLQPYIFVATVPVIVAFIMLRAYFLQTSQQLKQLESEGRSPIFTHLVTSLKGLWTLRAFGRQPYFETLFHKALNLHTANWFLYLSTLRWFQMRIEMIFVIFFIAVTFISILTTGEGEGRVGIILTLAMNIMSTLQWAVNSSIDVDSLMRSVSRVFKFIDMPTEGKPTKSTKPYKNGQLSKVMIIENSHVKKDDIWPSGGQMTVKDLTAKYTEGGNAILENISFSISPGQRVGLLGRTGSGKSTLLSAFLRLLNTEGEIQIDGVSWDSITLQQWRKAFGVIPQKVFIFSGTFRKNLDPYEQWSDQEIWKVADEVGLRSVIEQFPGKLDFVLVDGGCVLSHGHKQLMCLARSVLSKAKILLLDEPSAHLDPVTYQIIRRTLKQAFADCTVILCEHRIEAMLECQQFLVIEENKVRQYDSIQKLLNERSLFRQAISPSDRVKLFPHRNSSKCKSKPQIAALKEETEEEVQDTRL
# experimental.details: YFP-halide influx assay for the CFTR-G551D mutation
# Type: cell-based
# assay.conditions: HEK293 cells, forskolin 10.67 μM
pEC50: −log10 of the molar value.
value.type: pEC50

compound	val
NC(=O)c1cc(S(=O)(=O)N(Cc2ccc(F)cc2)C2CC2)sc1NC(=O)c1cc[nH]n1	6.61
CN(C)c1cccc(S(=O)(=O)c2cc(C(N)=O)c(NC(=O)C(C)(C)O)s2)c1	5.64
CC(C)c1ccccc1S(=O)(=O)c1cc(C(N)=O)c(NC(=O)C2(O)CC2)s1	7.03

(1) CC1(C)CN(S(=O)(=O)c2cc(C(N)=O)c(NC(=O)C(C)(C)O)s2)C1
(2) CC(C)(C)C(O)C(=O)Nc1sc(S(=O)(=O)c2ccc(OC(F)(F)F)cc2)cc1C(N)=O (stereo not shown)
(3) CC(C)(O)C(=O)Nc1sc(S(=O)(=O)c2ccc(C(F)(F)F)cc2)cc1C(N)=O
Order the entries by their reported pEC50, beginning at the minimum. Answer format: list of labels, ordered as asked. 1, 2, 3

(P) CC(O)C(=O)Nc1sc(S(=O)(=O)c2ccc(C(F)(F)F)cn2)cc1C(N)=O (stereo not shown)
(Q) CC(C)c1ccccc1S(=O)(=O)c1cc(C(N)=O)c(NC(=O)c2ccccc2F)s1
(R) CC(CO)C(=O)Nc1sc(S(=O)(=O)c2cc(Cl)ccc2OC(F)(F)F)cc1C(N)=O (stereo not shown)
(S) Cc1cc(S(=O)(=O)c2cc(C(N)=O)c(NC(=O)C(C)(C)O)s2)ncc1F
(T) CC(O)C(=O)Nc1sc(S(=O)(=O)c2cc(F)ccc2C(F)(F)F)cc1C(N)=O (stereo not shown)
Ranking field: pEC50; order: falling. I would appreciate it if you listed the labels in the requested order. R, T, Q, P, S
(R: 7.59, T: 6.97, Q: 6.48, P: 5.87, S: 5.58)

(a) Cc1ccc(C(F)(F)F)c(S(=O)(=O)c2cc(C(N)=O)c(NC(=O)C(C)(C)O)s2)n1
(b) CC(C)(O)C(=O)Nc1sc(S(=O)(=O)c2ccc(OC(F)(F)F)cc2)cc1C(N)=O
Quick check, higher pEC50 between a and b ? API: response body contains the label of the selected item. b
(b: 6.32, a: 5.83)

(1) NC(=O)c1cc(S(=O)(=O)c2ccc(F)cc2)sc1NC(=O)C1(O)CCC1
(2) CC(C)(C)C(=O)Nc1sc(S(=O)(=O)c2cccc(F)c2)cc1C(N)=O
Lab note: check whether 1 or 2 shows the higher recorded pEC50. Returns: label corresponding to the selected item. 1

====

# experimental.target: CFTR ΔF508 mutant (Homo sapiens, UniProt P13569, DEL508-508)
# Construct: expressed in transfected cells; host or cells: CFBE41o- (adenoviral transduction)
# Sequence (P13569 with tags, fused parts or gaps DEL508-508): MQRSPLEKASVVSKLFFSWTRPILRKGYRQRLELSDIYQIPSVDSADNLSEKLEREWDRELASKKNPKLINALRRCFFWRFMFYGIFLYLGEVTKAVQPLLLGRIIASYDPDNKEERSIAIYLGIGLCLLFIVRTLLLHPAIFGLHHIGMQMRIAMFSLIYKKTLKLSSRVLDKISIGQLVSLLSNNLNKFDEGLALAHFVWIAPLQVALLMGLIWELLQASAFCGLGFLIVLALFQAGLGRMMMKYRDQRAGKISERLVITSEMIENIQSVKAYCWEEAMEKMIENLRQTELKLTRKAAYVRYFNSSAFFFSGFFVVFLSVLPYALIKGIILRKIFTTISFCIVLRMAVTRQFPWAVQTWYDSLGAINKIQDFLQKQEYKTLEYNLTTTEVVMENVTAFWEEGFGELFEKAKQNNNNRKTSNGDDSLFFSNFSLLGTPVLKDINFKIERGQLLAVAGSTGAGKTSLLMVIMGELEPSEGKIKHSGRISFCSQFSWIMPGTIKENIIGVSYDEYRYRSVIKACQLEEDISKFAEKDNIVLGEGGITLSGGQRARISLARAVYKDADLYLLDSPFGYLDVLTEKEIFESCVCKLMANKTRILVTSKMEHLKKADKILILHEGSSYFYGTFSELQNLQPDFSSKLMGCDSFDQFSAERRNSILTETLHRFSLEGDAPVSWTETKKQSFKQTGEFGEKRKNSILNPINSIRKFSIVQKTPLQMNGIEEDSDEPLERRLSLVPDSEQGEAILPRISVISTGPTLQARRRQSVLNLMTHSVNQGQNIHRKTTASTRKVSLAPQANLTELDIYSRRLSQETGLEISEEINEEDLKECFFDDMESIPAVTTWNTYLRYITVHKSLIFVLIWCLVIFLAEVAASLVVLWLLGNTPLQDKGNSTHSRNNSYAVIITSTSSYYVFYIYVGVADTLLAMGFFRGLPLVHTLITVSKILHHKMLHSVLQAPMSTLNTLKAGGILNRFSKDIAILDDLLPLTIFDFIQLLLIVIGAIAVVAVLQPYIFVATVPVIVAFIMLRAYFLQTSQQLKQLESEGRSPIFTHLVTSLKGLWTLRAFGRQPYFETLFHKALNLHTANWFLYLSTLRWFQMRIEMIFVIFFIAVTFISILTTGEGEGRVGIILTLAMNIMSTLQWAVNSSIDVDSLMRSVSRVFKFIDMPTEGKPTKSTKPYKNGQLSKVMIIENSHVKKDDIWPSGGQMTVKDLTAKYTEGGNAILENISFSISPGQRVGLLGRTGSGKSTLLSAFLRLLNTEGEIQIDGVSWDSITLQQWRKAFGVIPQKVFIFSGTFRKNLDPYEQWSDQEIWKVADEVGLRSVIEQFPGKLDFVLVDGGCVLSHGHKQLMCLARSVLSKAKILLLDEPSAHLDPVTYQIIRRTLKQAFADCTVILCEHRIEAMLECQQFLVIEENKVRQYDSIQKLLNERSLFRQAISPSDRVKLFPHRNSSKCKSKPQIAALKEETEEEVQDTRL
# experimental.details: YFP-halide influx assay for the CFTR-ΔF508 mutation, gluconate buffer
# Assay type: cell-based
# assay.conditions: CFBE41o- cells, forskolin 10.67 μM
value.type: EC50 (nM)

(P) COc1ccc(CN(C)S(=O)(=O)c2cc(C(N)=O)c(NC(=O)c3cc[nH]n3)s2)cc1 [Compound 171]
(Q) NC(=O)c1cc(S(=O)(=O)N2CCOCC2)sc1NC(=O)c1cocn1 [Compound 94]
Please tell me which of the two, P or Q , has the higher reported EC50 value. Could you answer with the label of the item you picked? Q
(Q: 3330 nM, P: 104 nM)

(P) NC(=O)c1cc(S(=O)(=O)N2CCOCC2)sc1NC(=O)c1ccccn1 [Compound 91]
(Q) Cc1cc(F)ccc1S(=O)(=O)c1cc(C(N)=O)c(NC(=O)C2(O)CC2)s1 [Compound 222]
Field: lower EC50 | Options: P / Q Label of pick, please. Q
(Q: 22.9 nM, P: 1520 nM)

(P) NC(=O)c1cc(S(=O)(=O)c2ccc(F)cc2CO)sc1NC(=O)c1ccccc1F [Compound 196]
(Q) CN(CCC(F)(F)F)S(=O)(=O)c1cc(C(N)=O)c(NC(=O)c2ccccc2F)s1 [Compound 185]
Exercise: compare P and Q ; which one has the greater EC50? State the label of the item chosen. P

(P) Cc1ccc(CN(C)S(=O)(=O)c2cc(C(N)=O)c(NC(=O)c3ccccc3F)s2)cc1 [Compound 124]
(Q) CC(C)c1cc(C(=O)Nc2sc(S(=O)(=O)N3CCOCC3)cc2C(N)=O)c(O)c(C(C)C)c1 [Compound 201]
Record comparison, field EC50: mark the lower of P and Q . Write down the label of the entry you select. P

These entries and their values trace back to patent US9382254B2.
